B1: Cold shock protein CspB, P41016 (parent)
chain: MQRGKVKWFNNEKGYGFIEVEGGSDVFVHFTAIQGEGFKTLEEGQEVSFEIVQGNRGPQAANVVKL

variants of: B1; settings: Bacillus caldolyticus; pH 7; 70 °C; Thermal; CD; Sodium cacodylate-HCl 0.1 M; reversible: yes; structure 1C9O; whole UniProt chain shown
METRIC NAME: unfolding free energy (kJ/mol)
Use kJ/mol as the unit, but write only the number.

SEQUENCE CHANGE | MEASURED VALUE
Q53E | 4.1

Q: Returns the measured unfolding free energy for the input variant. Input: T31S
Result: 5.19

Q: Returns the measured unfolding free energy for the input variant. Input: Y15F
Result: 4.31

Q: Returns the measured unfolding free energy for the input variant. Input: N11S
Result: 5.9

Q: Returns the measured unfolding free energy for the input variant. Input: G23Q
Result: 3.31

Q: Returns the measured unfolding free energy for the input variant. Input: E46A
Result: 3.6

Q: Returns the measured unfolding free energy for the input variant. Input: S24D
Result: 5.4

Q: Returns the measured unfolding free energy for the input variant. Input: Q2L
Result: 6.82
